Test system: PC-3 prostate
ASSAY EXPLANATION: NCI-60 one-dose screen, 48 h
CONDITION INFO: 10 µM unless noted
The panel holds about 83,000 compounds, 20% with a hit somewhere; the sample as a whole holds those more often. Calls of active or inactive are those of the source. Rule for the calls: active = growth percent below 10; inactive = the rest.
Labels: T (active), F (inactive)

{"COMPOUND": "Clc1ccc2c(NCCNc3nc(-c4ccccc4)cc(-c4ccccc4)n3)ccnc2c1", "CAT": "T"}
{"COMPOUND": "COC(=O)[C@@H]1[C@H]2C[C@H]3c4[nH]c5cc(OC)ccc5c4CCN3C[C@@H]2C[C@H](OC(=O)/C=C/c2ccnc(OC)c2)[C@H]1OC", "CAT": "F"}
{"COMPOUND": "CC(=O)O[C@@H]1CCN2C(=O)N(C)c3ccccc3[C@@H]2C1", "CAT": "F"}
{"COMPOUND": "Cn1cc(-c2csc(-c3cn(CCN)c4ccc(Br)cc34)n2)c2cccnc21", "CAT": "F"}
{"COMPOUND": "O=c1[nH]ncc(Br)c1Br", "CAT": "F"}
{"COMPOUND": "CCN(CC)CCCCCNc1cc(OC(=O)c2ccccc2)cc2cccnc12", "CAT": "F"}
{"COMPOUND": "COc1ccc2c(c1)c(-c1nc(-c3c[nH]c4ncccc34)cs1)cn2CCN", "CAT": "F"}
{"COMPOUND": "COc1cnc2c(c1)C(=O)c1c-2n(CCCNCCN2CCOCC2)c(=O)c2cc([N+](=O)[O-])ccc12", "CAT": "F"}
{"COMPOUND": "CC(=O)O[C@H]1CC[C@]2(C)[C@H]3CC=C4[C@@H]5[C@H](C)[C@@H](C)CC[C@]5(C(=O)NCCNCCNCCN)CC[C@@]4(C)[C@]3(C)CC[C@H]2C1(C)C", "CAT": "F"}
{"COMPOUND": "COc1cc(-c2cc3cc(O)ccc3oc2=O)cc(OC)c1OC", "CAT": "F"}
{"COMPOUND": "O=C1C=C(C(O)c2ccc(O)cc2)C(=O)c2ccccc21 (configuration not stated)", "CAT": "F"}
{"COMPOUND": "COc1ccc(C2=NN(c3nc(-c4ccc(OC)cc4)c(C#N)c(=O)n3C)C(=O)CC2)cc1", "CAT": "F"}
{"COMPOUND": "Nc1ncnc2nc(Br)[nH]c12", "CAT": "F"}
{"COMPOUND": "Cn1nc(-c2ccccc2)c2c(-c3ccccc3)onc2c1=O", "CAT": "F"}
{"COMPOUND": "COc1ccc(C(=O)c2cc(OC)c(OC)c(OC)c2)cc1/C=C/C(=O)c1cc(OC)c(OC)c(OC)c1", "CAT": "F"}
{"COMPOUND": "Cc1cc(Cl)nc(N(CCNc2ccnc3cc(Cl)ccc23)Cc2ccco2)n1", "CAT": "F"}
{"COMPOUND": "COc1cccc(-c2nn(-c3ccccc3)cc2-c2ccnc(NCCCNS(=O)(=O)c3ccccc3)c2)c1", "CAT": "F"}
{"COMPOUND": "Cc1ccc2[nH]cc(-c3nc(-c4cn(C)c5ncccc45)cs3)c2c1", "CAT": "F"}
{"COMPOUND": "COc1cc(/C=C/c2cc(/C=C/c3ccc(O)c(OC)c3)n(-c3ccccc3)c(=O)n2)ccc1O", "CAT": "F"}
{"COMPOUND": "CC(C)(C)CC(C)(C)c1ccc(OCCOCC[N+](C)(C)CC(=O)[O-])cc1", "CAT": "F"}
{"COMPOUND": "Cc1ccc(-c2nc3ccc(Cl)cc3c(=O)n2N2C(=O)CSC2c2ccccc2Cl)cc1 (configuration not stated)", "CAT": "F"}
{"COMPOUND": "Nc1c2c(nc3ccc(Cl)cc13)CC(c1ccc(O)cc1)CC2=O (configuration not stated)", "CAT": "F"}
{"COMPOUND": "N#Cc1c(-c2ccco2)nc2c(c(-c3ccccc3)nn2-c2ccccc2)c1-c1ccc(O)cc1", "CAT": "F"}
{"COMPOUND": "C=C1C(=O)O[C@H]2[C@H]1CC/C(Cn1cc(-c3ccc(OC)cc3)nn1)=C\\CC[C@@]1(C)O[C@@H]21", "CAT": "F"}
{"COMPOUND": "COC(=O)CNc1nc(N(C)O)nc(N(C)O)n1", "CAT": "F"}
{"COMPOUND": "NNC(=O)c1nc2ccccc2[nH]1", "CAT": "F"}
{"COMPOUND": "CN(C)c1ccc(C(=O)c2ccc(N(C)C)c(N)c2)cc1N", "CAT": "F"}
{"COMPOUND": "COc1ccc(-c2nc3ncccn3c2-c2nc3ccc(Br)cc3[nH]2)cc1", "CAT": "F"}
{"COMPOUND": "Cn1cc(-c2csc(-c3cn(C(=O)OC(C)(C)C)c4ccc(Br)cc34)n2)c2cccnc21", "CAT": "F"}
{"COMPOUND": "COC(=O)[C@]12CC[C@@H](C(C)=O)[C@@H]1[C@H]1CC[C@@H]3[C@@]4(C)C/C(=C/c5cccnc5)C(=O)C(C)(C)[C@@H]4CC[C@@]3(C)[C@]1(C)CC2", "CAT": "F"}
{"COMPOUND": "Cc1csc(Nc2nc(-c3cccc(Br)c3)nc(C(Cl)(Cl)Cl)n2)n1", "CAT": "F"}
{"COMPOUND": "CN(C)CCCCC(C(=O)CBr)(c1ccccc1)c1ccccc1", "CAT": "F"}
